# Test system: PC-3 prostate
# ASSAY_COMMENT: NCI-60 one-dose screen, 48 h (100 = growth as untreated, 0 = no growth, -100 = all killed)
# TEST_SETTINGS: 10 µM unless noted
# Procedure: Growth inhibition of the PC-3 human tumor cell line is measured as a screen for anti-cancer activity. Cells are grown in 96 well plates and exposed to the test compound for 48 hours. Compounds are tested at a single concentration, which is 10^-5 M for most compounds. The reported endpoint is percent growth (GI% or GIPRCNT), where numbers from 0 - 100% represent growth inhibition, and numbers from -100% - 0 represent cell death. For example, a value of 40 represents 60% growth inhibition. […]
This is part of a sample that, as a whole, favours compounds with a hit. Of some 83,000 tested, about 20% had one in any assay.
We use 90% as the dividing line for growth: on or above the line is fulfilled, below is not fulfilled.

COMPOUND | ASSIGNED_CLASS
OC(c1cccc(C(F)(F)F)c1)c1cnccc1NC1CCCCC1 (stereo unspecified) | not fulfilled
CCCCCCNC(=O)Oc1ccc(/C(=C(\C)c2ccccc2)c2ccc(OCCCN(C)C)cc2)cc1 | not fulfilled
COc1ccc(C(=O)c2nc3ccccc3n2CC(=O)c2ccc(F)cc2)cc1 | not fulfilled
CC1(C)CC(O)CCCCCCOc2c(CN)cccc2NC(=O)c2nc(cnc2N)-c2ccc(cc2)S1(=O)=O (stereo unspecified) | not fulfilled
COc1cccc(-c2nc3occn3c2-c2ccnc(NCCNS(=O)(=O)c3cccc4ccccc34)n2)c1 | fulfilled
N#CC1C(C#N)C2c3ccccc3C=CN2C1C(=O)c1ccc(Br)cc1 (stereo unspecified) | fulfilled
O=S(=O)(NCCCNc1nccc(-c2c(-c3cccc(F)c3)nc3sccn23)n1)c1cccc2ccccc12 | not fulfilled
Cc1ccc(-n2cc(-c3ccccc3)c3c2N=NN2CCN=C32)cc1 | not fulfilled
O=C(O)c1ccc(NCc2cn(-c3ccc(C(F)(F)F)cc3)nc2-c2ccc(C(=O)O)cc2)cc1 | fulfilled
